Values compiled from PubChem BioAssay AID1654.

// inhibition lookup, one value per entry
- target_system: Dual specificity protein phosphatase 3 (Homo sapiens) (UniProt P51452)
- Sequence (P51452 whole entry, looked up): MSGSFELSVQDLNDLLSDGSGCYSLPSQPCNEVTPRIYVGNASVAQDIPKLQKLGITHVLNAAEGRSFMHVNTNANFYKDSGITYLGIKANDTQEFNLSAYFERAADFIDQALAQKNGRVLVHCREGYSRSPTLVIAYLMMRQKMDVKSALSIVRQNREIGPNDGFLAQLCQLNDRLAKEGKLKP
- protocol_details: VHR1 phosphatase inhibitors, primary screen, biochemical, absorbance, uHTS (AID 1654)
- conditions_used: recombinant VHR phosphatase, pNPP absorbance, at 13.3 µM, hits give high values
Among all 290,000 compounds or so, about 1,500 (0.52%) were called active. This is one part of a sample in which actives are shown more often than they occur.

q: Any idea what its inhibition is? The molecule is Cc1ccsc1/C=C1\SC(N2CCOCC2)=NC1=O
a: 51% (active)

q: What do you have for CCOC(=O)c1ccc2[nH]c3c(c2c1)CCCC3NC=O (stereo unspecified) ?
a: 5.2% (inactive)

q: What do you have for O=C(Nc1nnc(-c2ccc(Cl)cc2)o1)c1ccccc1Br ?
a: 41.9% (inactive)

q: What do you have for Cc1ccc(OCC(=O)OC(C)CN(C)Cc2ccccc2)cc1 (stereo unspecified) ?
a: -3.9% (inactive)

q: What do you have for Cc1cc(C)c(S(=O)(=O)c2cc(F)ccc2C)c(=O)[nH]1 ?
a: 56.9% (active)

q: What do you have for O=C(/C=C/Nc1ccc(S(=O)(=O)Nc2cnc3ccccc3n2)cc1)c1cccnc1 ?
a: 16.5% (inactive)

###

// inhibition lookup, one value per entry
- target_system: Dual specificity protein phosphatase 3 (Homo sapiens)
- protocol_details: VHR1 phosphatase inhibitors, primary screen, biochemical, absorbance, uHTS (AID 1654)
- conditions_used: recombinant VHR phosphatase, pNPP absorbance, at 13.3 µM, hits give high values
Among all 290,000 compounds or so, about 1,500 (0.52%) were called active. The sample as a whole holds a higher share of actives than the screen did.
Record the value in %, omitting the unit from your answer.

Before answering, review these 5 worked examples.
CC(=O)c1nn(-c2cccc(C(F)(F)F)c2)c(=O)[nH]c1=O :: -9.5
CC1(C)C2CCC1(CS(=O)(=O)NCCc1c[nH]c3ccccc13)C(=O)C2 (stereo unspecified) :: -8.1
O=C1CCC(C(=O)N2CCCCO2)CN1Cc1cccc(C(F)(F)F)c1 (stereo unspecified) :: 23.9
O=[N+]([O-])c1cc([N+](=O)[O-])c(Oc2cc(F)cc(F)c2F)cc1NN1CCCCC1 :: 16.6
COc1cccc(-c2coc3cc4oc(=O)c(CC(=O)O)c(C)c4cc23)c1 :: 57.3

q: Any idea what its inhibition is? The compound is CCOc1ccc(CN2CCN(CCCc3ccccc3)C(CCO)C2)cc1 (stereo unspecified)
a: 8.1

q: What do you have for Nc1nnnn1CC(=O)N/N=C/c1ccc(-c2cccc(Cl)c2)o1 ?
a: 5.3

###

- target_system: Dual specificity protein phosphatase 3 (Homo sapiens) (UniProt P51452)
- protocol_details: VHR1 phosphatase inhibitors, primary screen, biochemical, absorbance, uHTS (AID 1654)
- conditions_used: recombinant VHR phosphatase, pNPP absorbance, at 13.3 µM, hits give high values
Among all 290,000 compounds or so, about 1,500 (0.52%) were called active. The list comes from a sample in which actives are over-represented; it also holds close analogues and randomly drawn compounds.
measured_property: inhibition (%)
Record the value in %, omitting the unit from your answer.

Before answering, review these 5 worked examples.
CCn1c(=S)sc2c(=O)n(CC(=O)Nc3cccc(Br)c3)c(C)nc21 :: -3.6
Cc1ccc(NC(=O)C2CCCN2S(=O)(=O)c2cccc3cccnc23)c(C)c1 (stereo unspecified) :: -0.7
COc1cccc(OC)c1C(=O)Nc1c(C(=O)N2CCN(c3ccccn3)CC2)oc2ccccc12 :: 52.1
Cc1ccc(NC2CCCN(C(=O)CCc3cn[nH]c3)C2)cc1C (stereo unspecified) :: -2.7
Cc1cc(C)cc(NC(=O)C2CCCN2S(=O)(=O)c2cccc3cccnc23)c1 (stereo unspecified) :: -42.1

q: Tell me reported inhibition for COc1cc(C(=O)NCc2ccncc2)cc(Br)c1OCc1ccccc1 , tested with Dual specificity protein phosphatase 3 (Homo sapiens) (UniProt P51452).
a: 50

q: What do you have for CCOc1ncccc1C(=O)N(C)CC(=O)Nc1ccc(F)cc1 ?
a: 59.9

q: What do you have for CC(=O)c1cccc(NC(=O)C2CCCN(S(=O)(=O)c3cccc4nonc34)C2)c1 (stereo unspecified) ?
a: 50.4

###

- target_system: Dual specificity protein phosphatase 3 (Homo sapiens) (UniProt P51452)
- protocol_details: VHR1 phosphatase inhibitors, primary screen, biochemical, absorbance, uHTS (AID 1654)
- conditions_used: recombinant VHR phosphatase, pNPP absorbance, at 13.3 µM, hits give high values
Hit rate of the full screen: of about 290,000 compounds, about 1,500 (0.52%) were called active. Shown is part of a subset that was picked to be rich in actives.
Class field: derived from inhibition; ranges low group (below 20%), middle group (20% to below 40%), high group (40% or more)

Check out these entries, answers already filled in.
CC(C)CCNC(=O)C1CCCN(S(=O)(=O)c2ccc(F)cc2)C1 (stereo unspecified) :: high group
COc1ccc(CCNC(=O)C2CCCN(S(=O)(=O)c3ccc(OC)cc3)C2)cc1 (stereo unspecified) :: low group
NC(=O)N1CCc2ccccc21 :: middle group
COCCN(C(=S)Nc1cccc(Cl)c1C)C(C)c1ccco1 (stereo unspecified) :: low group
CCOc1ccccc1/C=N/NC(=O)CNC(=O)COc1ccccc1 :: middle group
Cc1ccc(/C=N/NC(=O)CNC(=O)COc2ccccc2)o1 :: high group

q: Band for the recorded inhibition of O=S(=O)(NCc1cccnc1)c1ccc(Br)s1 ?
a: middle group

q: What do you have for CCCCNC(=O)C1CCCN(S(=O)(=O)c2ccc(S(=O)(=O)NCC(C)C)cc2)C1 (stereo unspecified) ?
a: low group

q: What do you have for Cc1ccc(C(=O)O/N=C(\N)c2ccccn2)cc1Cl ?
a: low group

q: What do you have for CCN1C(=NCCc2cccnc2)N[C@@H](c2ccccc2)[C@H](C(=O)OC)[C@H]1C ?
a: middle group

###

- target_system: Dual specificity protein phosphatase 3 (Homo sapiens) (UniProt P51452)
- protocol_details: VHR1 phosphatase inhibitors, primary screen, biochemical, absorbance, uHTS (AID 1654)
- conditions_used: recombinant VHR phosphatase, pNPP absorbance, at 13.3 µM, hits give high values
In all, about 290,000 compounds went through this assay and about 1,500 (0.52%) were called active. Only a selection was taken, and actives are over-represented in it overall.
measured_property: inhibition (%)
Record the value in %, omitting the unit from your answer.

q: Any idea what its inhibition is? The compound is Cc1ccccc1NC(=O)CN1C(=O)N/C(=C\c2cccn2-c2cccc(C(=O)O)c2)C1=O
a: 35.6

q: What do you have for COCC1CCN(C(=O)C2CCC(=O)N(CC3CCCCC3)C2)CC1 (centres undefined) ?
a: 6.5

q: What do you have for COc1cccc2cc(C(=O)N(C)C)c(=O)oc12 ?
a: 18.2

q: What do you have for Cc1cc(OC(=O)c2ccc(OC(C)C)cc2)c([N+](=O)[O-])c(=O)[nH]1 ?
a: -18

###

// inhibition lookup, one value per entry
- target_system: Dual specificity protein phosphatase 3 (Homo sapiens)
- protocol_details: VHR1 phosphatase inhibitors, primary screen, biochemical, absorbance, uHTS (AID 1654)
- conditions_used: recombinant VHR phosphatase, pNPP absorbance, at 13.3 µM, hits give high values
Hit rate of the full screen: of about 290,000 compounds, about 1,500 (0.52%) were called active. For the sample, actives were picked, then their nearest neighbours and some compounds at random.
Record the value in %, omitting the unit from your answer.

q: Any idea what its inhibition is? The molecule is CCOCCCNCc1cc(Br)ccc1OCC
a: 3

q: What do you have for COc1cc(NC(=S)N2CCCC(C)C2)cc(OC)c1OC (stereo not given) ?
a: 56.3

###

// inhibition lookup, one value per entry
- target_system: Dual specificity protein phosphatase 3 (Homo sapiens) (UniProt P51452)
- protocol_details: VHR1 phosphatase inhibitors, primary screen, biochemical, absorbance, uHTS (AID 1654)
- conditions_used: recombinant VHR phosphatase, pNPP absorbance, at 13.3 µM, hits give high values
The campaign covered roughly 290,000 compounds. About 1,500 (0.52%) were called active. The full list was thinned out, with actives kept by preference.
Record the value in %, omitting the unit from your answer.

CCn1cc(S(=O)(=O)c2cccc(C)c2)c(=O)c2cc(F)c(N3CCN(C)CC3)cc21 :: 5.7
Cc1c(CC(=O)NCCCCCC(=O)O)c(=O)oc2cc3occ(-c4ccccc4)c3cc12 :: -11
O=S(=O)(c1ccc2c(c1)OCCO2)N1CCc2ccccc21 :: 13.6
CCN(CC)c1ccc(/C=N/NC(=O)CNC(=O)c2cccnc2)cc1 :: -4.7
Cc1ccc(CS(=O)(=O)CCC(=O)NCc2ccc(F)cc2)cc1 :: 57.9

q: Any idea what its inhibition is? The molecule is CCOc1ccc2[nH]c(=O)c(CN(CCCO)S(=O)(=O)c3ccc(F)cc3)cc2c1
a: 39.4

q: What do you have for CCn1c(=O)c(=O)n(CC)c2cc(S(=O)(=O)N3CCc4ccccc43)ccc21 ?
a: 50.3

q: What do you have for CCOC(=O)c1c(S(=O)(=O)Nc2ccc(CN3CCC(C)CC3)cc2)c(C)n(C)c1C ?
a: -22.3

q: What do you have for CCOc1ccc2c(c1)c(=O)c(S(=O)(=O)c1ccc(C)cc1)cn2CC ?
a: 52.5

q: What do you have for Cn1c(=O)n(C)c2cc(S(=O)(=O)N3CCCc4ccccc43)ccc21 ?
a: 3.5

q: What do you have for Cc1ccc(CS(=O)(=O)CCC(=O)NC2CC2)cc1 ?
a: 9.9

q: What do you have for CC1CCCCC1NC(=O)c1cn(C)c2ccc(S(=O)(=O)N3CCOCC3)cc2c1=O (centres undefined) ?
a: 5.7

q: What do you have for O=C(Cn1nnc(-c2ccccc2)n1)N/N=C/c1ccc(-c2ccc(Cl)cc2)o1 ?
a: 50.8

q: What do you have for O=C(Nc1cc(-c2nc3ncccc3o2)ccc1Cl)c1ccco1 ?
a: 24
